Protocol Text: Pharmacokinetics after 21 days dosing in the efficacy study (plasma, tumor and brain concentrations; plasma AUC at steady state), Example 14
Format: in vivo, female BALB/c nude mice
Assay Setup: mouse, brain, po; 3 mg/kg p.o. BID x 21 days; 4 h; mean ± SEM; read-out: Concentration in Brain
Recorded Endpoint: concentration at 4 h (ng/g)
Dear colleague, please return just the value in ng/g, with no unit written.

# lookup: concentration at 4 h of CCN(C)S(=O)(=O)Nc1ccc(F)c(Oc2ccc3ncn([C@H]4COC5(CCN(C6CC7(C6)CN(c6cc8c(cc6F)c(N6CCC(=O)NC6=O)nn8C)C7)CC5)C4)c(=O)c3c2)c1C#N [Compound 26]
66.6

====

Protocol Text: Example 6 pharmacokinetics assay for PKPD study (plasma, tumor, liver)
Type: in vivo, BALB/c nude mice
Assay Setup: mouse, plasma, po; 35 mg/kg, single dose; 1 h; read-out: Concentration in Plasma (mean ± SEM)
Recorded Endpoint: concentration at 1 h (ng/mL)
Numbers only here, please. The scale is ng/mL.

Consider the molecule COC(=O)N[C@@H](C)CNc1nccc(-c2cn(C(C)C)nc2-c2cc(Cl)cc(NS(C)(=O)=O)c2F)n1 [Encorafenib, encorafenib, reference compound] and give its measured concentration at 1 h.
5720

====

Tested on: A375-NRAS^Q61K cells
Protocol Text: CTGlo Cell Viability Assay, A375-NRAS^Q61K (A375.11) cells, 96 hours
Format: cell-based, human
Assay Setup: Homo sapiens, 96 h, A375.11 (A375-NRAS^Q61K) cells
I'd be grateful if you could share measured GI50 for these entries.

Can you look up the measured GI50 of CCN(C)S(=O)(=O)Nc1ccc(F)c(Oc2ccc3ncn(C4CC5(CCN(C6CCC(c7cc8c(cc7F)c(N7CCC(=O)NC7=O)nn8C)CC6F)CC5)C4)c(=O)c3c2)c1C#N (single isomer, unassigned) [Compound 83] for me?
< 1 µM

Item CCN(C)S(=O)(=O)Nc1ccc(F)c(Oc2ccc3ncn([C@H]4COC5(CCN(C6CC7(C6)CN(c6cc8c(cc6F)c(N6CCC(=O)NC6=O)nn8C)C7)CC5)C4)c(=O)c3c2)c1C#N [Compound 26] has what recorded GI50?
< 1 µM

Give its GI50 value. Item: CN(CCO)S(=O)(=O)Nc1ccc(F)c(Oc2ccc3ncn([C@H]4COC5(CCN([C@H]6C[C@@H](c7cc8c(cc7F)c(N7CCC(=O)NC7=O)nn8C)C6)CC5)C4)c(=O)c3c2)c1C#N [Compound 165]
> 10 µM

May I ask what GI50 has been recorded for CCN(C)S(=O)(=O)Nc1ccc(F)c(Oc2ccc3ncn(CCC4CCN(C5CCC(c6cc7c(cc6F)c(N6CCC(=O)NC6=O)nn7C)CC5)CC4)c(=O)c3c2)c1C#N (single isomer, unassigned) [Compound 137] ?
1 to 10 µM

Need GI50, item CCN(C)S(=O)(=O)Nc1ccc(F)c(Oc2ccc3ncn([C@H]4CO[C@@]5(CCN(C6CCC(c7cc8c(cc7F)c(N7CCC(=O)NC7=O)nn8C)CC6)C5)C4)c(=O)c3c2)c1C#N (single isomer, unassigned) [Compound 292]
< 1 µM

Recorded GI50 for CCN(C)S(=O)(=O)Nc1ccc(F)c(Oc2ccc3ncn([C@H]4COC5(CCC(N6C7COCC6CC(c6cc8c(cc6F)c(N6CCC(=O)NC6=O)nn8C)C7)CC5)C4)c(=O)c3c2)c1C#N (single isomer, unassigned) [Compound 155] , please?
> 10 µM

I would be grateful if you could share the reported GI50 for Cn1nc(N2CCC(=O)NC2=O)c2cc(F)c(C3CCC(N4CCC5(CC4)CC(c4cnc6ccc(Oc7c(F)ccc(NS(=O)(=O)N8CC[C@@H](F)C8)c7C#N)cc6n4)C5)CC3)cc21 (stereo partly drawn) [Compound 267] .
< 1 µM

Query: GI50; subject: CCN(C)S(=O)(=O)Nc1ccc(F)c(Oc2ccc3ncn(C4CC5(CCN(C6CC7(C6)CN(c6cc8c(cc6F)c(N6CCC(=O)NC6=O)nn8C)C7)CC5)C4)c(=O)c3c2)c1C#N (stereo not drawn) [Compound 141]
< 1 µM

Which value of GI50 has been reported for CCN(C)S(=O)(=O)Nc1ccc(F)c(Oc2ccc3ncn([C@H]4COC5(CCN(CC6(O)CCN(c7cc8c(cc7F)c(N7CCC(=O)NC7=O)nn8C)CC6)CC5)C4)c(=O)c3c2)c1C#N [Compound 230] in the records?
< 1 µM

Param item = CC(C)S(=O)(=O)Nc1ccc(F)c(Oc2ccc3ncn([C@H]4COC5(CCN(C6CC7(C6)CN(c6cc8c(cc6F)c(N6CCC(=O)NC6=O)nn8C)C7)CC5)C4)c(=O)c3c2)c1C#N [Compound 134] ; retrieve measured GI50.
< 1 µM

So what's the measured GI50 for this one? COC1CN(S(=O)(=O)Nc2ccc(F)c(Oc3ccc4ncn([C@H]5COC6(CCN(C7CC8(C7)CN(c7cc9c(cc7F)c(N7CCC(=O)NC7=O)nn9C)C8)CC6)C5)c(=O)c4c3)c2C#N)C1 [Compound 246]
< 1 µM

If you can, please state the reported GI50 value of Cn1nc(N2CCC(=O)NC2=O)c2cc(F)c(C3CCC(N4CCC5(CC4)CC(c4cnc6ccc(Oc7c(F)ccc(NS(=O)(=O)C8CCCC8)c7C#N)cc6n4)C5)CC3)cc21 (single isomer, unassigned) [Compound 270] .
< 1 µM

Consider the compound CCN(C)S(=O)(=O)Nc1ccc(F)c(Oc2ccc3ncn(C4CC5(CCN(C6CCC7(CC6)CN(c6cc8c(cc6F)c(N6CCC(=O)NC6=O)nn8C)C7)CC5)C4)c(=O)c3c2)c1C#N (stereo not drawn) [Compound 220] and give its measured GI50.
> 10 µM

Form field: reported GI50 of N#Cc1c(NS(=O)(=O)C2CCCC2)ccc(F)c1Oc1ccc2ncn([C@H]3COC4(CCN(C5CCC(c6ccc(NC7CCC(=O)NC7=O)cc6F)CC5)CC4)C3)c(=O)c2c1 (single isomer, unassigned) [Compound 136]
< 1 µM

So what does the record say about GI50 for CCN(C)S(=O)(=O)Nc1ccc(F)c(Oc2ccc3ncc([C@H]4COC5(CCN(C6CCC(c7cc8c(cc7F)c(N7CCC(=O)NC7=O)nn8C)CC6F)CC5)C4)nc3c2)c1C#N (single isomer, unassigned) [Compound 160] ?
< 1 µM

I would be grateful if you could share the reported GI50 for CCN(C)S(=O)(=O)Nc1ccc(F)c(Oc2ccc3ncn(C4CC5(CCN(C6COC7(CCN(c8cc9c(cc8F)c(N8CCC(=O)NC8=O)nn9C)CC7)C6)CC5)C4)c(=O)c3c2)c1C#N (stereo not drawn) [Compound 216] .
< 1 µM

So what's the measured GI50 for this one? CN(CCO)S(=O)(=O)Nc1ccc(F)c(Oc2ccc3ncc([C@@H]4COC5(CCN(C6CCC(c7cc8c(cc7F)c(N7CCC(=O)NC7=O)nn8C)CC6F)CC5)C4)nc3c2)c1C#N (single isomer, unassigned) [Compound 172]
1 to 10 µM

Tell me the measured GI50 of CCN(C)S(=O)(=O)Nc1ccc(F)c(Oc2ccc3ncn(C4CC5(CCN(C6CC7(C6)CN(c6cc8c(cc6F)c(N6CCC(=O)NC6=O)nn8C)C7)CC5)C4)c(=O)c3c2)c1F (stereo not drawn) [Compound 164] , please.
1 to 10 µM

====

Protocol Text: Pharmacokinetics in female BALB/c nude mice bearing A375 xenografts, 1 day dosing (PK and PD study): plasma, tumor and brain concentrations, AUC
Type: in vivo
Assay Setup: mouse, tumor, po, 1.5 mg/kg, Compound 141; 1.5 mg/kg p.o. BID × 1 day; post 2nd dose; 10 h; read-out: Mean Concentration in Tumor ± SEM
Recorded Endpoint: concentration at 10 h

Need concentration at 10 h, item CCN(C)S(=O)(=O)Nc1ccc(F)c(Oc2ccc3ncn(C4CC5(CCN(C6CC7(C6)CN(c6cc8c(cc6F)c(N6CCC(=O)NC6=O)nn8C)C7)CC5)C4)c(=O)c3c2)c1C#N (stereo not shown)
54.7 ng/g

====

What DC50 was measured for each of the following?
System Under Test: BRAF V600E (Homo sapiens, UniProt P15056+Q96SW2, V600E)
Construct: knock-in of the HiBiT tag to the endogenous BRAF V600E locus; host or cells: A375.10 (A375 clonal line, CRISPR HiBiT knock-in at the endogenous BRAF V600E locus)
Sequence (P15056 whole entry V600E): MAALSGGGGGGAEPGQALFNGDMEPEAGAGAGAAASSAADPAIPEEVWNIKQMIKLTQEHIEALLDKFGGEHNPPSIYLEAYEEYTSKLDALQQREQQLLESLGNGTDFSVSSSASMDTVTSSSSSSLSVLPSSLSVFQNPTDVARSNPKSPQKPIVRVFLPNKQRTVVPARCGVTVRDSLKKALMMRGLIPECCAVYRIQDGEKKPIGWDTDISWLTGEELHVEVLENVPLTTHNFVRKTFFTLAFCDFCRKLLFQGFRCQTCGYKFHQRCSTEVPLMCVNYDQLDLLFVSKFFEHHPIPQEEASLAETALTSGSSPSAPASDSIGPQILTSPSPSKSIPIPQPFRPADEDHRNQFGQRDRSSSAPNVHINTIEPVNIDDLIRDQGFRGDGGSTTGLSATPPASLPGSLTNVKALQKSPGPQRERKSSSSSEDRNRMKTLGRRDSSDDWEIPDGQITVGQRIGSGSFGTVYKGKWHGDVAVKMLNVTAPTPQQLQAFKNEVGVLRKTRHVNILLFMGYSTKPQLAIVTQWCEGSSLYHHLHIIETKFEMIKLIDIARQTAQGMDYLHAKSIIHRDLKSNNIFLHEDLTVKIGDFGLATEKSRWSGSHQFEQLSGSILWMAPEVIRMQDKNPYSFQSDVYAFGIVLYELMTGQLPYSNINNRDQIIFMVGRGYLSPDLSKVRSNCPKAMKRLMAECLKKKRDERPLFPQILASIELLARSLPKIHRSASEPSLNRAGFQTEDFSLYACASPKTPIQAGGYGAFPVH
Sequence (Q96SW2 whole entry): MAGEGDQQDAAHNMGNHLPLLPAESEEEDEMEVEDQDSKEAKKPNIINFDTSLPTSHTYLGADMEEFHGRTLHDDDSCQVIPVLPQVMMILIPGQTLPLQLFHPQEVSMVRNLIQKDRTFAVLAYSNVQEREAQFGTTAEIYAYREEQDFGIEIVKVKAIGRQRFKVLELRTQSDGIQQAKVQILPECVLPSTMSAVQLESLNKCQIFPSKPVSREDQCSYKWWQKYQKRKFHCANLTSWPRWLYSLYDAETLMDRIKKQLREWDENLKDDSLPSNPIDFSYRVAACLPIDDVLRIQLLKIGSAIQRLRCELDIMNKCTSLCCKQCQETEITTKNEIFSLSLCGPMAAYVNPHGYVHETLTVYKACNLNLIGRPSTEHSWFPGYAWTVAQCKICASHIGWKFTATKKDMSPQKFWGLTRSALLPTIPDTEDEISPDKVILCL
Sequence (Q16531 whole entry partner): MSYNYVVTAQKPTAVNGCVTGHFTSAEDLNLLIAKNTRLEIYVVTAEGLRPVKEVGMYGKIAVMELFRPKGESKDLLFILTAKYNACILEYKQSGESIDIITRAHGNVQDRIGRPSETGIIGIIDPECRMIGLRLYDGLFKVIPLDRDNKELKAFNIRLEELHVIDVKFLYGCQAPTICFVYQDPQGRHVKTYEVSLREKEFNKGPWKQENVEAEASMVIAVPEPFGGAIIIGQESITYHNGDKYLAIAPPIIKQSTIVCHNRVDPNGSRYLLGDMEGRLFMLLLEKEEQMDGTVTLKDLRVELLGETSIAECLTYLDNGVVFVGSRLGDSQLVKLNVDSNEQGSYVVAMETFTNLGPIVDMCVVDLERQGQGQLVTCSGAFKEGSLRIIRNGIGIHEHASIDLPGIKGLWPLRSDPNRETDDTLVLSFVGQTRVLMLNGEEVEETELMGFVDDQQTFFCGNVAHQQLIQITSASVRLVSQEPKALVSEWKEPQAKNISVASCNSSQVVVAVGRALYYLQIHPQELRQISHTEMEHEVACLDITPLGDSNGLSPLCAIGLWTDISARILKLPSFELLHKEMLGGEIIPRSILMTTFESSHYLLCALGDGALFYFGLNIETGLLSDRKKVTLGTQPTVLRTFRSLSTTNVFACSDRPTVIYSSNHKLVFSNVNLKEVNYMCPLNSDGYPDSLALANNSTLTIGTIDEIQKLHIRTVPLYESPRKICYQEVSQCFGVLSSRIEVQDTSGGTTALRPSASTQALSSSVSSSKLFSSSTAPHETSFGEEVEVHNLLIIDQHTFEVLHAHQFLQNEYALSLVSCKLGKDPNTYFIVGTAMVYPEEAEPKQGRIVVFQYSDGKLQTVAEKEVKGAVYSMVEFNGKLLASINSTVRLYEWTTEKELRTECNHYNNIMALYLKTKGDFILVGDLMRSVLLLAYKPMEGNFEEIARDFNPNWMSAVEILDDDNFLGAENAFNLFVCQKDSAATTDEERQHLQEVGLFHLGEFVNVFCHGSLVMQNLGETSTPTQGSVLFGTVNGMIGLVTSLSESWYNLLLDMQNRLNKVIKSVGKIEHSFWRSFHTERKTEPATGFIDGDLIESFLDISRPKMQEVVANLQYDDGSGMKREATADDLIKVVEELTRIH
Protocol Text: BRAF V600E HiBiT Degradation Assay
Type: cell-based
Assay Setup: A375.10 cells, BRAF V600E, 2 hours; read-out: HiBiT-Degradation A375.10 BRAF 2 hours DC50

Quick check: DC50 of CC(C)S(=O)(=O)Nc1ccc(F)c(Oc2ccc3ncn([C@H]4COC5(CCN(C6CCC(c7cc8c(cc7F)c(N7CCC(=O)NC7=O)nn8C)CC6)CC5)C4)c(=O)c3c2)c1C#N (single isomer, unassigned) ?
< 1000 nM

Given CN(CCO)S(=O)(=O)Nc1ccc(F)c(Oc2ccc3ncn([C@H]4COC5(CCN(C6CCC(c7cc8c(cc7F)c(N7CCC(=O)NC7=O)nn8C)CC6)CC5)C4)c(=O)c3c2)c1C#N (single isomer, unassigned) , state its recorded DC50.
< 1000 nM

// DC50 lookup, key: `CCN(C)S(=O)(=O)Nc1ccc(F)c(Oc2ccc3ncn(C4CC5(CCN(CC6(O)CCN(c7cc8c(cc7F)c(N7CCC(=O)NC7=O)nn8C)CC6)CC5)C4)c(=O)c3c2)c1C#N`
< 1000 nM

// query DC50 value for entry `CN(CCO)S(=O)(=O)Nc1ccc(F)c(Oc2ccc3ncn([C@H]4COC5(CCN(C6CC7(C6)CN(c6cc8c(cc6F)c(N6CCC(=O)NC6=O)nn8C)C7)CC5)C4)c(=O)c3c2)c1C#N`
< 1000 nM

Suppose we examine the compound CCN(C)S(=O)(=O)Nc1ccc(F)c(Oc2ccc3ncc([C@H]4COC5(CCN(C6CCC(c7cc8c(cc7F)c(N7CCC(=O)NC7=O)nn8C)CC6)CC5)C4)nc3c2)c1C#N (single isomer, unassigned) ; what DC50 value has been reported?
< 1000 nM

Which DC50 value is on record for CCN(C)S(=O)(=O)Nc1ccc(F)c(Oc2ccc3ncn(C4CC5(CCN(C6CCC(c7cc8c(cc7F)c(N7CCC(=O)NC7=O)nn8C)CC6F)CC5)C4)c(=O)c3c2)c1C#N (single isomer, unassigned) [Compound 85] ?
< 1000 nM

Which measured DC50 value corresponds to CCN(C)S(=O)(=O)Nc1ccc(F)c(Oc2ccc3ncn([C@@H]4CCC5(CCN(C6CCC(c7cc8c(cc7F)c(N7CCC(=O)NC7=O)nn8C)CC6)CC5)C4)c(=O)c3c2)c1C#N (single isomer, unassigned) [Compound 32] ?
< 1000 nM

Consider the compound `CCN(C)S(=O)(=O)Nc1ccc(F)c(Oc2ccc3ncn([C@@H]4COC5(C4)CN(C4CC6(C4)CN(c4cc7c(cc4F)c(N4CCC(=O)NC4=O)nn7C)C6)C5)c(=O)c3c2)c1C#N` and give its measured DC50.
1000 to 10000 nM

Which DC50 is listed for CCN(C)S(=O)(=O)Nc1ccc(F)c(Oc2ccc3ncn(C4CC5(CCN(C6CCC(c7cc8c(cc7F)c(N7CCC(=O)NC7=O)nn8C)CC6)CC5)C4)c(=O)c3c2)c1C#N (single isomer, unassigned) [Compound 8] ?
< 1000 nM

DC50 lookup needed for CCN(C)S(=O)(=O)Nc1ccc(F)c(C(=O)c2ccc3ncn(C4CC5(CCN(C6CC7(C6)CN(c6cc8c(cc6F)c(N6CCC(=O)NC6=O)nn8C)C7)CC5)C4)c(=O)c3c2)c1F (stereo not drawn) , thanks.
1000 to 10000 nM

Report DC50 for CCN(C)S(=O)(=O)Nc1ccc(F)c(Oc2ccc3ncn(C4CC5(CCN(C6CCC(c7cc8c(cc7F)c(N7CCC(=O)NC7=O)nn8C)CC6F)CC5)C4)c(=O)c3c2)c1C#N (single isomer, unassigned) [Compound 84] please.
< 1000 nM

Fill in: DC50 of `CCN(C)S(=O)(=O)Nc1ccc(F)c(Oc2ccc3ncn([C@H]4COC5(CCN(C6CC7(C6)CN(c6cc8c(cc6F)c(N6CCC(=O)NC6=O)nn8C)C7)CC5)C4)c(=O)c3c2)c1C#N` is ___
< 1000 nM

Name the reported DC50 value associated with the compound `CCN(C)S(=O)(=O)Nc1ccc(F)c(Oc2ccc3ncc(OCC4CCN(C5CC6(C5)CN(c5cc7c(cc5F)c(N5CCC(=O)NC5=O)nn7C)C6)CC4)nc3c2)c1C#N`
< 1000 nM

Fill in: DC50 of CCN(C)S(=O)(=O)Nc1ccc(F)c(Nc2ccc3ncn([C@H]4COC5(CCN(C6CCC(c7cc8c(cc7F)c(N7CCC(=O)NC7=O)nn8C)CC6)CC5)C4)c(=O)c3c2)c1C#N (single isomer, unassigned) [Compound 65] is ___
1000 to 10000 nM

Which DC50 value is on record for CCN(C)S(=O)(=O)Nc1ccc(F)c(Oc2ccc3ncn(C4CCC5(CC4)CCN(C4CCC(c6ccc(NC7CCC(=O)NC7=O)cc6F)CC4)CC5)c(=O)c3c2)c1C#N (single isomer, unassigned) [Compound 11] ?
< 1000 nM

Find the recorded DC50 belonging to CCN(C)S(=O)(=O)Nc1ccc(F)c(Oc2ccc3ncn([C@H]4CO[C@]5(CCN(C6CCC(c7cc8c(cc7F)c(N7CCC(=O)NC7=O)nn8C)CC6)C5)C4)c(=O)c3c2)c1C#N (single isomer, unassigned) [Compound 288] and report it.
1000 to 10000 nM

Could you tell me which DC50 is on file for `CCN(C)S(=O)(=O)Nc1ccc(F)c(Oc2ccc3ncn(C4CC5(CCN([C@H]6C[C@@H](c7cc8c(cc7F)c(N7CCC(=O)NC7=O)nn8C)C6)CC5)C4)c(=O)c3c2)c1C#N` ?
< 1000 nM

DC50 lookup needed for CCN(C)S(=O)(=O)Nc1ccc(F)c(Oc2ccc3ncc(OCC4CCN(C5CCC(c6ccc(NC7CCC(=O)NC7=O)cc6F)CC5)CC4)nc3c2)c1C#N (single isomer, unassigned) [Compound 117] , thanks.
< 1000 nM
